For each entry below, report its LD50 at 168 h value.
# assay protocol: approximate acute toxicity (LD50) in the mouse, single oral administration
# experimental setup: in vivo

Exercise: Using the record for CNC(=C[N+](=O)[O-])NCCSCc1ccc(CN(C)C)o1 [Ranitidine, reference compound] , report its LD50 at 168 h.
Key: > 800 mg/kg

Exercise: Using the record for `CNC(=O)N1CCc2nc(N)sc2C1` , report its LD50 at 168 h.
Key: 200 to 400 mg/kg

Exercise: Using the record for `CC(C)NC(=S)N1CCc2nc(N)sc2C1` , report its LD50 at 168 h.
Key: 400 to 800 mg/kg

Exercise: Using the record for `CC(C)NC(=S)N1CCc2nc(NC(=N)N)sc2C1` , report its LD50 at 168 h.
Key: 400 to 800 mg/kg

Exercise: Using the record for `CC(C)NC(=O)N1CCc2nc(NC(=N)N)sc2C1` , report its LD50 at 168 h.
Key: 200 to 400 mg/kg

Exercise: Using the record for `N=C(N)Nc1nc2c(s1)CN(C(=O)NC1CC1)CC2` , report its LD50 at 168 h.
Key: > 800 mg/kg
